- Study system: PRMT5 (Homo sapiens, UniProt O14744)
- Construct: purchased Viva (custom protein)
- Sequence (O14744 whole entry): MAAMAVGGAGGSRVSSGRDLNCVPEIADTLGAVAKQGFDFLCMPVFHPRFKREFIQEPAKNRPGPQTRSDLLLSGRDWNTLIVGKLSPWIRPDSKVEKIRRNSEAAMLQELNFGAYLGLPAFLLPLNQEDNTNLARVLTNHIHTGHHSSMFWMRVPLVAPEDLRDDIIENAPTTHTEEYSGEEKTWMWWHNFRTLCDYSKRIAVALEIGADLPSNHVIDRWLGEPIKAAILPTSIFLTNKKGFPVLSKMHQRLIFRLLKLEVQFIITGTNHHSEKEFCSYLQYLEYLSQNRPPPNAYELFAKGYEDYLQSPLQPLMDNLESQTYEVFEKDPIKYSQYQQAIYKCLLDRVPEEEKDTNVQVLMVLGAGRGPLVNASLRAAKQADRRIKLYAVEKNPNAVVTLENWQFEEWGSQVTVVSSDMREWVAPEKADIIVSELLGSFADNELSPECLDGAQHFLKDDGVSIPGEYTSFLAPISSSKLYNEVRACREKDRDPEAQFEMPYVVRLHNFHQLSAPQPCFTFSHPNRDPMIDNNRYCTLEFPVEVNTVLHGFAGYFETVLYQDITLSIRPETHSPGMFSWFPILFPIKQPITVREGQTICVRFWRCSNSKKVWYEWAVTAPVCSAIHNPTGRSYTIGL
- Sequence (Q9BQA1 whole entry partner): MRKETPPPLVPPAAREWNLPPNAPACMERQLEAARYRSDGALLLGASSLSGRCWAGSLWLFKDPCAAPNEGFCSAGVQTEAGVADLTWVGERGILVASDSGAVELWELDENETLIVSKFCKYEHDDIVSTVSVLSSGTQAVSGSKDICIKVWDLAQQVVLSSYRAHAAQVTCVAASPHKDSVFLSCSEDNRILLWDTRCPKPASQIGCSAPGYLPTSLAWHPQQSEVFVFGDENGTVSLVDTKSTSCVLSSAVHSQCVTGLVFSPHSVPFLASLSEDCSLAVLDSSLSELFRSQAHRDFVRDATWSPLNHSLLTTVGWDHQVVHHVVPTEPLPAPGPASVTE
- Assay comment: PRMT5 biochemical IC50 assay with MTA as cofactor
- Test context: PRMT5, MTA as cofactor; read-out: MTA IC50
pIC50: −log10 of the molar value.
Measured endpoint: pIC50

Here is how some compounds turned out for pIC50.
Compound: C[C@@H]1CC[C@@H](c2ccc(NCC(=O)N(C)C)cc2)N(C(=O)C(=O)Nc2cncc(C(N)=O)c2)C1 (single isomer, unassigned) [Compound 437]
Study system: PRMT5 (Homo sapiens, UniProt O14744)
pIC50: > 7.30

Compound: C[C@H]1CC[C@H](c2ccc(F)c(Cl)c2)N(C(=O)C(=O)Nc2cncc(C(N)=O)c2)C1 (single isomer, unassigned) [Compound 512]
Study system: PRMT5 (Homo sapiens, UniProt O14744)
pIC50: > 7.30

Compound: Cc1cc(NC(=O)C(=O)N2C[C@H](C)CC[C@H]2c2cccc3c2CCN3)cnc1N (single isomer, unassigned) [Compound 962]
Study system: PRMT5 (Homo sapiens, UniProt O14744)
pIC50: > 7.30

# get_value(readout='pIC50', item= CCc1cc(NC(=O)C(=O)N2C[C@@H](C)CC[C@@H]2c2ccc3sc(N)nc3c2)cnc1N (single isomer, unassigned) [Compound 996] )
> 7.30

Further, for COc1ncc(NC(=O)C(=O)N2C[C@H](C)CC[C@H]2c2ccc3c(c2)CNC3=O)cc1C(N)=O (single isomer, unassigned) [Compound 749] ?
> 7.30

Further, for CCc1cc(NC(=O)C(=O)N2C[C@@H](C)CC[C@@H]2c2ccn(-c3cc[nH]n3)n2)cnc1N (single isomer, unassigned) [Compound 913] ?
< 6.30

Further, for C[C@H]1CC[C@H](c2cc3[nH]ncc3s2)N(C(=O)C(=O)Nc2cncc(C(N)=O)c2)C1 (single isomer, unassigned) [Compound 873] ?
> 7.30

Further, for COc1ncc(NC(=O)C(=O)N2C[C@@H](C)CC[C@@H]2c2ccc3sc(C4CCN(C5CC5)CC4)nc3c2)cc1C(N)=O [Compound 1219] ?
> 7.30

Further, for C[C@@H]1CC[C@H](c2ccccc2)N(C(=O)C(=O)Nc2cncc(C(N)=O)c2)[C@@H]1C (racemic) [Compound 163] ?
> 7.30

Further, for Cc1cc(NC(=O)C(=O)N2C[C@H](C)CC[C@H]2C2CC3(CCC3)C2)cnc1N (racemic) [Compound 692] ?
6.30 to 7.30

Further, for COc1ncc(NC(=O)C(=O)N2C[C@@H](C)[C@@H](OC)C[C@@H]2c2ccc3scnc3c2)cc1C(N)=O (single isomer, unassigned) [Compound 1344] ?
< 6.30

Further, for C[C@@H]1CC[C@@H](c2cccs2)N(C(=O)C(=O)Nc2cncc(C(N)=O)c2)C1 (single isomer, unassigned) [Compound 201] ?
< 6.30

Further, for COc1ncc(NC(=O)C(=O)N2C[C@@H](C)CC[C@@H]2c2ccc(NS(C)(=O)=O)nc2)cc1C(N)=O (single isomer, unassigned) [Compound 999] ?
< 6.30

Further, for C[C@]1(F)CC[C@@H](c2ccccc2)N(C(=O)C(=O)Nc2cncc(C(N)=O)c2)C1 (single isomer, unassigned) [Compound 798] ?
< 6.30

Further, for Cc1cc([C@@H]2CC[C@@H](C)CN2C(=O)C(=O)Nc2cncc(C(N)=O)c2)ccc1F (racemic) [Compound 131] ?
> 7.30

Further, for Cc1cc(NC(=O)C(=O)N2C[C@H](C)CC[C@H]2c2cccc(S(N)(=O)=O)c2)cnc1N (racemic) [Compound 688] ?
> 7.30

Further, for Cc1cc(NC(=O)C(=O)N2C[C@H](C)CC[C@H]2c2cnc3c(c2)CCC(=O)N3)cnc1N (racemic) [Compound 923] ?
6.30 to 7.30

Further, for Cc1cc(NC(=O)C(=O)N2C[C@H](C)CC[C@H]2C(C)C)cnc1N (racemic) [Compound 165] ?
> 7.30
